experiment: Inhibition of PI3Kalpha in human PC3 cells expressing Akt1 S473D mutant assessed as phosphorylation of Akt Thr308 by immunoblotting
READOUT_TYPE: IC50

I am curious: what IC50 value has been reported for COCCC(=O)N1CCN(c2ccc(Nc3ccnc4ccc(-c5cnc6ccccc6c5)cc34)cc2C(F)(F)F)CC1 ?
> 300 nM
